Data provenance: patent US20230416248A1

molecules and their reported pIC50
# measured target: BRG-1 (Homo sapiens)
# Construct: made in house; host or cells: High Five insect cells
# Sequence (P51532 whole entry): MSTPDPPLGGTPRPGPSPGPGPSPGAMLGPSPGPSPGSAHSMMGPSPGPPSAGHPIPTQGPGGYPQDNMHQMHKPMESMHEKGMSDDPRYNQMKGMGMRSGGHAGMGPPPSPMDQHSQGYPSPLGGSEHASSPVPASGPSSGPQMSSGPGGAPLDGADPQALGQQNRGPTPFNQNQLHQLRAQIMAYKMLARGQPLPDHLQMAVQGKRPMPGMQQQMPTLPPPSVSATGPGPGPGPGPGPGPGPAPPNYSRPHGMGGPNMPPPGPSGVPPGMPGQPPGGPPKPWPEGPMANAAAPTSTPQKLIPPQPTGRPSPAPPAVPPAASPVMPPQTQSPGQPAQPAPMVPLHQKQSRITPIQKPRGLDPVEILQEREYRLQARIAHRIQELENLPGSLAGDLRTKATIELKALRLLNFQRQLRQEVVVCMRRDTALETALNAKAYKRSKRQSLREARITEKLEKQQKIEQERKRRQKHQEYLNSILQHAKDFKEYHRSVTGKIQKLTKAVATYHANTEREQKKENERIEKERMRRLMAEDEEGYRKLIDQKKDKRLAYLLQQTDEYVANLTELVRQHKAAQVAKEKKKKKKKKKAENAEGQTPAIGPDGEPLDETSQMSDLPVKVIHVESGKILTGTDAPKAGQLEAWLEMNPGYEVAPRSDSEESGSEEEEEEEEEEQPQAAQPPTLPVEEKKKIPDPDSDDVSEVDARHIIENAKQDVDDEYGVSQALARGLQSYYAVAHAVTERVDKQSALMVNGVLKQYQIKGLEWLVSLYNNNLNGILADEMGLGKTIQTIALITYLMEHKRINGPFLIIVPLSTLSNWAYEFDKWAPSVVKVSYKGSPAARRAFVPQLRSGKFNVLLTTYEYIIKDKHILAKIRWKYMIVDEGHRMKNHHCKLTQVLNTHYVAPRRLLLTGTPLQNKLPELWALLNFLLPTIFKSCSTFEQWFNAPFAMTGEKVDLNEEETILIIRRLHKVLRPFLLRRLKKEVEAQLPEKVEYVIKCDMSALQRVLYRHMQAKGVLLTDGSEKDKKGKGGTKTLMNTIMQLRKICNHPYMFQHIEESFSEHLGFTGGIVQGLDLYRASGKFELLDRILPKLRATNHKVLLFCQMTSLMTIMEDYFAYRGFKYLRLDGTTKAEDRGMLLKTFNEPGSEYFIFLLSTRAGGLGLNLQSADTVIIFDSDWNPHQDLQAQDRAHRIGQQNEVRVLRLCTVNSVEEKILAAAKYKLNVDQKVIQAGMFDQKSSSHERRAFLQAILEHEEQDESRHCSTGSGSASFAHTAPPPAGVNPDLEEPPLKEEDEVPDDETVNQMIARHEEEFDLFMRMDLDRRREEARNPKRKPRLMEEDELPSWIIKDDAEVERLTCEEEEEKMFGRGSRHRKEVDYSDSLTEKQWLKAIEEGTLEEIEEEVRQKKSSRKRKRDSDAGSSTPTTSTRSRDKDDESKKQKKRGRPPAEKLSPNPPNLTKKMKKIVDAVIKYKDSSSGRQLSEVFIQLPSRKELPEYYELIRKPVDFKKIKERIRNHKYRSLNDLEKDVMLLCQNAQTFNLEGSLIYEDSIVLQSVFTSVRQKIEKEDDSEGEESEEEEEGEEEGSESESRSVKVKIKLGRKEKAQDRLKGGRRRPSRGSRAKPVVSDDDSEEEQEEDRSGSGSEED
# assay comment: ATPase catalytic activity of BRG-1, ADP-Glo in vitro biochemical assay
# setup conditions: ATPase catalytic activity, ADP-Glo; 30 nM BRG-1, 400 μM ATP; read-out: BRG1 IC50
# pIC50: negative log10 of molar concentration; output just the value

>  <molecule>
COc1nc(C(F)F)ccc1-c1ccc2cnc(CNC(=O)c3ccc4c(c3)S(=O)(=O)[C@@H](C)COC4)cc2n1

>  <pIC50>
6.72

$$$$
>  <molecule>
CO[C@@H](C)c1cnc2c(c1)CCCN2c1ccc2cnc(CNC(=O)c3ccc4c(c3)S(=O)(=O)CCOC4)cc2n1

>  <pIC50>
6.15

$$$$
>  <molecule>
C[C@@H]1CN(c2cccc(-c3ccc4cnc(CNC(=O)c5cnc6c(c5)S(=O)(=O)CCCC6(F)F)cc4n3)n2)C[C@H](C)O1

>  <pIC50>
7.23

$$$$
>  <molecule>
CC1COc2ccc(-c3ccc4cnc(CNC(=O)c5ccc6c(c5)S(=O)(=O)CCOC6)cc4n3)nc2N1C (stereo not drawn)

>  <pIC50>
6.87

$$$$
>  <molecule>
COc1cccc2c1CCN2c1ccc2cnc(CNC(=O)c3ccc4c(c3)S(=O)(=O)CCOC4)cc2n1

>  <pIC50>
6.43

$$$$

Input line: pIC50 for O=C(NCc1cc2nc(-c3cncc(C4CC4)n3)ccc2cn1)c1cnc2c(c1)S(=O)(=O)CCCCC2 ?
Output line: 6.74

Input line: pIC50 for Cc1ccc2c(n1)N(c1ccc3cnc(CNC(=O)c4ccc5c(c4)S(=O)(=O)CCOC5)cc3n1)CCO2 ?
Output line: 6.63

Input line: pIC50 for COc1cc(C2CC2)ccc1-c1ccc2cnc(CNC(=O)c3ccc4c(c3)S(=O)(=O)CCOC4)cc2n1 ?
Output line: 6.14

Input line: pIC50 for CO[C@@H]1CCN(c2cccc(-c3ccc4cnc(CNC(=O)c5ccc6c(c5)S(=O)(=O)CCOC6)cc4n3)n2)C[C@H]1C ?
Output line: 6.90

Input line: pIC50 for COC[C@@H]1C[C@H]1N(C)c1cccc(-c2ccc3cnc(CNC(=O)c4ccc5c(c4)S(=O)(=O)CCOC5)cc3n2)n1 ?
Output line: 6.55

Input line: pIC50 for Cc1cnc2c(c1)CCCN2c1ccc2cnc(CNC(=O)c3cc(F)c4c(c3)S(=O)(=O)CCOC4)cc2n1 ?
Output line: 7.23

Input line: pIC50 for C[C@@H]1C[C@@H](N(C)c2cccc(-c3ccc4cnc(CNC(=O)c5ccc6c(c5)S(=O)(=O)CCOC6)cc4n3)n2)C[C@H](C)O1 ?
Output line: 6.42
